- Tested on: M-1-P-producing enzyme
- protocol-description: Maltose transfer reaction without phosphate, HPLC analysis of products
- Assay type: biochemical, Corynebacterium glutamicum JCM1321
- condition-description: 2.0% substrate, 0.16 U/mL enzyme, one hour at 37°C
Could you please report measured Product (Peak area x 10^6): DP=7 for the items listed next?

Here's what some known entries look like.
>  <compound>
OC[C@H]1OC(O)[C@H](O)[C@@H](O)[C@@H]1O (stereo partly shown)

>  <reported-value>
0.00 x 10^6

$$$$
>  <compound>
OC[C@H]1O[C@H](O[C@H]2[C@H](O)[C@@H](O)[C@@H](O[C@H]3[C@H](O)[C@@H](O)[C@@H](O[C@H]4[C@H](O)[C@@H](O)[C@@H](O[C@H]5[C@H](O)[C@@H](O)[C@@H](O[C@H]6[C@H](O)[C@@H](O)[C@@H](O[C@H]7[C@H](O)[C@@H](O)C(O)O[C@@H]7CO)O[C@@H]6CO)O[C@@H]5CO)O[C@@H]4CO)O[C@@H]3CO)O[C@@H]2CO)[C@H](O)[C@@H](O)[C@@H]1O (stereo partly shown)

>  <reported-value>
6.36 x 10^6

$$$$
>  <compound>
OC[C@H]1O[C@H](O[C@H]2[C@H](O)[C@@H](O)C(O)O[C@@H]2CO)[C@H](O)[C@@H](O)[C@@H]1O (mixture of isomers)

>  <reported-value>
0.00 x 10^6

$$$$

Dear colleague, could you please provide Product (Peak area x 10^6): DP=7 for the compounds listed below?
1. OC[C@H]1O[C@H](O[C@H]2[C@H](O)[C@@H](O)[C@@H](O[C@H]3[C@H](O)[C@@H](O)[C@@H](O[C@H]4[C@H](O)[C@@H](O)C(O)O[C@@H]4CO)O[C@@H]3CO)O[C@@H]2CO)[C@H](O)[C@@H](O)[C@@H]1O (stereo partly shown)
2. OC[C@H]1O[C@H](O[C@H]2[C@H](O)[C@@H](O)[C@@H](O[C@H]3[C@H](O)[C@@H](O)[C@@H](O[C@H]4[C@H](O)[C@@H](O)[C@@H](O[C@H]5[C@H](O)[C@@H](O)[C@@H](O[C@H]6[C@H](O)[C@@H](O)C(O)O[C@@H]6CO)O[C@@H]5CO)O[C@@H]4CO)O[C@@H]3CO)O[C@@H]2CO)[C@H](O)[C@@H](O)[C@@H]1O (stereo partly shown)
3. OC[C@H]1O[C@H](O[C@H]2[C@H](O)[C@@H](O)[C@@H](O[C@H]3[C@H](O)[C@@H](O)[C@@H](O[C@H]4[C@H](O)[C@@H](O)[C@@H](O[C@H]5[C@H](O)[C@@H](O)C(O)O[C@@H]5CO)O[C@@H]4CO)O[C@@H]3CO)O[C@@H]2CO)[C@H](O)[C@@H](O)[C@@H]1O (stereo partly shown)
4. OC[C@H]1O[C@H](O[C@H]2[C@H](O)[C@@H](O)[C@@H](O[C@H]3[C@H](O)[C@@H](O)C(O)O[C@@H]3CO)O[C@@H]2CO)[C@H](O)[C@@H](O)[C@@H]1O (stereo partly shown)

["0.00 x 10^6", "0.00 x 10^6", "0.52 x 10^6", "0.00 x 10^6"]

---

- Tested on: M-1-P-producing enzyme
- protocol-description: Maltose transfer reaction without phosphate, HPLC analysis of products
- Type: biochemical, Corynebacterium glutamicum JCM1321
- condition-description: 2.0% substrate, 0.16 U/mL enzyme, one hour at 37°C
- Procedure: As substrates, 2% dextrin MAX 1000 (Matsutani Chemical) and 1M phosphate buffer (pH 7) were employed. To the substrates, a suitably diluted enzyme was added, and the mixture was incubated for one hour at 37°C, followed by quantification of the produced […] through HPLC. […]
parameter: Product (Peak area x 10^6): DP=4

Here's what some known entries look like.
>  <molecule>
OC[C@H]1O[C@H](O[C@H]2[C@H](O)[C@@H](O)[C@@H](O[C@H]3[C@H](O)[C@@H](O)[C@@H](O[C@H]4[C@H](O)[C@@H](O)[C@@H](O[C@H]5[C@H](O)[C@@H](O)[C@@H](O[C@H]6[C@H](O)[C@@H](O)[C@@H](O[C@H]7[C@H](O)[C@@H](O)C(O)O[C@@H]7CO)O[C@@H]6CO)O[C@@H]5CO)O[C@@H]4CO)O[C@@H]3CO)O[C@@H]2CO)[C@H](O)[C@@H](O)[C@@H]1O (stereo partly shown)

>  <reported-value>
0.19 x 10^6

$$$$
>  <molecule>
OC[C@H]1O[C@H](O[C@H]2[C@H](O)[C@@H](O)[C@@H](O[C@H]3[C@H](O)[C@@H](O)[C@@H](O[C@H]4[C@H](O)[C@@H](O)[C@@H](O[C@H]5[C@H](O)[C@@H](O)[C@@H](O[C@H]6[C@H](O)[C@@H](O)C(O)O[C@@H]6CO)O[C@@H]5CO)O[C@@H]4CO)O[C@@H]3CO)O[C@@H]2CO)[C@H](O)[C@@H](O)[C@@H]1O (stereo partly shown)

>  <reported-value>
10.20 x 10^6

$$$$
>  <molecule>
OC[C@H]1O[C@H](O[C@H]2[C@H](O)[C@@H](O)[C@@H](O[C@H]3[C@H](O)[C@@H](O)[C@@H](O[C@H]4[C@H](O)[C@@H](O)C(O)O[C@@H]4CO)O[C@@H]3CO)O[C@@H]2CO)[C@H](O)[C@@H](O)[C@@H]1O (stereo partly shown)

>  <reported-value>
30.80 x 10^6

$$$$

Attention now turns to another entry.
Consider the molecule shown here: OC[C@H]1O[C@H](O[C@H]2[C@H](O)[C@@H](O)C(O)O[C@@H]2CO)[C@H](O)[C@@H](O)[C@@H]1O (mixture of isomers) What is its recorded Product (Peak area x 10^6): DP=4?
0.00 x 10^6

---

Could you please report measured Product (Peak area x 10^6): DP=6 for the items listed next?
- Tested on: M-1-P-producing enzyme
- protocol-description: Maltose transfer reaction without phosphate, HPLC analysis of products
- Assay type: biochemical, Corynebacterium glutamicum JCM1321
- condition-description: 2.0% substrate, 0.16 U/mL enzyme, one hour at 37°C

Dear colleague, could you please provide Product (Peak area x 10^6): DP=6 for the compounds listed below?
1. OC[C@H]1O[C@H](O[C@H]2[C@H](O)[C@@H](O)[C@@H](O[C@H]3[C@H](O)[C@@H](O)C(O)O[C@@H]3CO)O[C@@H]2CO)[C@H](O)[C@@H](O)[C@@H]1O (stereo partly shown)
2. OC[C@H]1O[C@H](O[C@H]2[C@H](O)[C@@H](O)[C@@H](O[C@H]3[C@H](O)[C@@H](O)[C@@H](O[C@H]4[C@H](O)[C@@H](O)[C@@H](O[C@H]5[C@H](O)[C@@H](O)[C@@H](O[C@H]6[C@H](O)[C@@H](O)[C@@H](O[C@H]7[C@H](O)[C@@H](O)C(O)O[C@@H]7CO)O[C@@H]6CO)O[C@@H]5CO)O[C@@H]4CO)O[C@@H]3CO)O[C@@H]2CO)[C@H](O)[C@@H](O)[C@@H]1O (stereo partly shown)
3. OC[C@H]1O[C@H](O[C@H]2[C@H](O)[C@@H](O)[C@@H](O[C@H]3[C@H](O)[C@@H](O)[C@@H](O[C@H]4[C@H](O)[C@@H](O)[C@@H](O[C@H]5[C@H](O)[C@@H](O)[C@@H](O[C@H]6[C@H](O)[C@@H](O)C(O)O[C@@H]6CO)O[C@@H]5CO)O[C@@H]4CO)O[C@@H]3CO)O[C@@H]2CO)[C@H](O)[C@@H](O)[C@@H]1O (stereo partly shown)
4. OC[C@H]1O[C@H](O[C@H]2[C@H](O)[C@@H](O)C(O)O[C@@H]2CO)[C@H](O)[C@@H](O)[C@@H]1O (mixture of isomers)

1. 0.00 x 10^6
2. 0.00 x 10^6
3. 8.87 x 10^6
4. 0.00 x 10^6

---

Could you please report measured Product (Peak area x 10^6): Maltose for the items listed next?
- System: M-1-P-producing enzyme
- protocol-description: Maltose transfer reaction without phosphate, HPLC analysis of products
- Assay type: biochemical, Corynebacterium glutamicum JCM1321
- condition-description: 2.0% substrate, 0.16 U/mL enzyme, one hour at 37°C

Here's what some known entries look like.
>  <compound>
OC[C@H]1O[C@H](O[C@H]2[C@H](O)[C@@H](O)[C@@H](O[C@H]3[C@H](O)[C@@H](O)[C@@H](O[C@H]4[C@H](O)[C@@H](O)[C@@H](O[C@H]5[C@H](O)[C@@H](O)[C@@H](O[C@H]6[C@H](O)[C@@H](O)[C@@H](O[C@H]7[C@H](O)[C@@H](O)C(O)O[C@@H]7CO)O[C@@H]6CO)O[C@@H]5CO)O[C@@H]4CO)O[C@@H]3CO)O[C@@H]2CO)[C@H](O)[C@@H](O)[C@@H]1O (stereo partly shown)

>  <parameter>
Product (Peak area x 10^6): Maltose

>  <reported-value>
0.28 x 10^6

$$$$
>  <compound>
OC[C@H]1O[C@H](O[C@H]2[C@H](O)[C@@H](O)[C@@H](O[C@H]3[C@H](O)[C@@H](O)[C@@H](O[C@H]4[C@H](O)[C@@H](O)[C@@H](O[C@H]5[C@H](O)[C@@H](O)C(O)O[C@@H]5CO)O[C@@H]4CO)O[C@@H]3CO)O[C@@H]2CO)[C@H](O)[C@@H](O)[C@@H]1O (stereo partly shown)

>  <parameter>
Product (Peak area x 10^6): Maltose

>  <reported-value>
0.27 x 10^6

$$$$
>  <compound>
OC[C@H]1O[C@H](O[C@H]2[C@H](O)[C@@H](O)[C@@H](O[C@H]3[C@H](O)[C@@H](O)C(O)O[C@@H]3CO)O[C@@H]2CO)[C@H](O)[C@@H](O)[C@@H]1O (stereo partly shown)

>  <parameter>
Product (Peak area x 10^6): Maltose

>  <reported-value>
1.84 x 10^6

$$$$
>  <compound>
OC[C@H]1O[C@H](O[C@H]2[C@H](O)[C@@H](O)[C@@H](O[C@H]3[C@H](O)[C@@H](O)[C@@H](O[C@H]4[C@H](O)[C@@H](O)C(O)O[C@@H]4CO)O[C@@H]3CO)O[C@@H]2CO)[C@H](O)[C@@H](O)[C@@H]1O (stereo partly shown)

>  <parameter>
Product (Peak area x 10^6): Maltose

>  <reported-value>
0.15 x 10^6

$$$$
>  <compound>
OC[C@H]1OC(O)[C@H](O)[C@@H](O)[C@@H]1O (stereo partly shown)

>  <parameter>
Product (Peak area x 10^6): Maltose

>  <reported-value>
0.00 x 10^6

$$$$

Dear colleague, could you please provide Product (Peak area x 10^6): Maltose for the compounds listed below?
1. OC[C@H]1O[C@H](O[C@H]2[C@H](O)[C@@H](O)[C@@H](O[C@H]3[C@H](O)[C@@H](O)[C@@H](O[C@H]4[C@H](O)[C@@H](O)[C@@H](O[C@H]5[C@H](O)[C@@H](O)[C@@H](O[C@H]6[C@H](O)[C@@H](O)C(O)O[C@@H]6CO)O[C@@H]5CO)O[C@@H]4CO)O[C@@H]3CO)O[C@@H]2CO)[C@H](O)[C@@H](O)[C@@H]1O (stereo partly shown)
2. OC[C@H]1O[C@H](O[C@H]2[C@H](O)[C@@H](O)C(O)O[C@@H]2CO)[C@H](O)[C@@H](O)[C@@H]1O (mixture of isomers)

["0.61 x 10^6", "46.79 x 10^6"]

Each recorded value in this set is attributed to patent EP1910527B1.
